Test: Photo-DSC/DSC cationic curing activity of PAGs in Epon 828
Conditions: Epon 828; DSC scan 10° C./minute after light exposure
Measured DSC after PDSC Onset Temp values are reported for all entries that follow.
Property: DSC after PDSC Onset Temp (C.°)

# Compound, Property, Unit Text, Measured Value
rows = [
    ("CC(C)(C)c1ccc([I+]c2ccc(C(C)(C)C)cc2)cc1.CC(C)(C)c1ccc([I+]c2ccc(C(C)(C)C)cc2)cc1.O=S(=O)([O-])C(F)(F)C(F)(F)C(F)(F)C(F)(F)S(=O)(=O)[O-] [PAG2, [(p-(CH3)3C—C6H4)2I^+]2-O3S(CF2)4SO3—]", "DSC after PDSC Onset Temp", "C.°", 110),
    ("CC(C)(C)c1ccc([I+]c2ccc(C(C)(C)C)cc2)cc1.O=S(=O)([O-])C(F)(F)C(F)(F)C(F)(F)C(F)(F)C(F)(F)C(F)(F)C(F)(F)C(F)(F)F [DTBPI-PFOS, reference compound]", "DSC after PDSC Onset Temp", "C.°", 100),
    ("CC(C)(C)c1ccc([I+]c2ccc(C(C)(C)C)cc2)cc1.O=S(=O)([O-])C(F)(F)C(F)(F)C(F)(F)C(F)(F)F [DTBPI-ONf, reference compound]", "DSC after PDSC Onset Temp", "C.°", 100),
    ("CC(C)(C)c1ccc([I+]c2ccc(C(C)(C)C)cc2)cc1.CC(C)(C)c1ccc([I+]c2ccc(C(C)(C)C)cc2)cc1.O=S(=O)([O-])C(F)(F)C(F)(F)C(F)(F)S(=O)(=O)[O-] [PAG1, [(p-(CH3)3C—C6H4)2I^+]2-O3S(CF2)3SO3—]", "DSC after PDSC Onset Temp", "C.°", 100),
]

---

Assay: Photo-DSC/DSC cationic curing activity of PAGs in Epon 828
Set-up: unit not given here
Details: Epon 828; time to peak maximum of curing exotherm at 30° C.
Here, each record is paired with measured PDSC Peak Max data.

# Compound, PDSC Peak Max
data = [
    ("CC(C)(C)c1ccc([I+]c2ccc(C(C)(C)C)cc2)cc1.O=S(=O)([O-])C(F)(F)C(F)(F)C(F)(F)C(F)(F)C(F)(F)C(F)(F)C(F)(F)C(F)(F)F [DTBPI-PFOS, reference compound]", 28.4),
    ("CC(C)(C)c1ccc([I+]c2ccc(C(C)(C)C)cc2)cc1.CC(C)(C)c1ccc([I+]c2ccc(C(C)(C)C)cc2)cc1.O=S(=O)([O-])C(F)(F)C(F)(F)C(F)(F)C(F)(F)S(=O)(=O)[O-] [PAG2, [(p-(CH3)3C—C6H4)2I^+]2-O3S(CF2)4SO3—]", 27),
    ("CC(C)(C)c1ccc([I+]c2ccc(C(C)(C)C)cc2)cc1.O=S(=O)([O-])C(F)(F)C(F)(F)C(F)(F)C(F)(F)F [DTBPI-ONf, reference compound]", 21.2),
    ("CC(C)(C)c1ccc([I+]c2ccc(C(C)(C)C)cc2)cc1.CC(C)(C)c1ccc([I+]c2ccc(C(C)(C)C)cc2)cc1.O=S(=O)([O-])C(F)(F)C(F)(F)C(F)(F)S(=O)(=O)[O-] [PAG1, [(p-(CH3)3C—C6H4)2I^+]2-O3S(CF2)3SO3—]", 27),
]

---

Experiment: Photo-DSC/DSC cationic curing activity of PAGs in Epon 828
Design: unit not given here
Details: Epon 828; light exposure at 30° C.
Method: Photo-DSC/DSC: Standard (hermetic) liquid sample pans were used. Sample size was kept in the 6 to 8 mg range. Samples were tested using a Dupont Photo-DSC/DSC instrument (available from DuPont, Wilmington, Del.). The light source was a 200 W Hg lamp that delivered about 60 mw/cm at the sample. […] The photo-DSC experiment provides information on the photo-cure speed at 30° C. as measured by the induction time (onset) and time to reach the peak maximum in the curing exotherm. […]
Property: PDSC Induction Time

# Compound, Measured Value
measured = [
    ("CC(C)(C)c1ccc([I+]c2ccc(C(C)(C)C)cc2)cc1.O=S(=O)([O-])C(F)(F)C(F)(F)C(F)(F)C(F)(F)F [DTBPI-ONf, reference compound]", 12.5),
    ("CC(C)(C)c1ccc([I+]c2ccc(C(C)(C)C)cc2)cc1.CC(C)(C)c1ccc([I+]c2ccc(C(C)(C)C)cc2)cc1.O=S(=O)([O-])C(F)(F)C(F)(F)C(F)(F)S(=O)(=O)[O-] [PAG1, [(p-(CH3)3C—C6H4)2I^+]2-O3S(CF2)3SO3—]", 16.2),
    ("CC(C)(C)c1ccc([I+]c2ccc(C(C)(C)C)cc2)cc1.CC(C)(C)c1ccc([I+]c2ccc(C(C)(C)C)cc2)cc1.O=S(=O)([O-])C(F)(F)C(F)(F)C(F)(F)C(F)(F)S(=O)(=O)[O-] [PAG2, [(p-(CH3)3C—C6H4)2I^+]2-O3S(CF2)4SO3—]", 17.1),
    ("CC(C)(C)c1ccc([I+]c2ccc(C(C)(C)C)cc2)cc1.O=S(=O)([O-])C(F)(F)C(F)(F)C(F)(F)C(F)(F)C(F)(F)C(F)(F)C(F)(F)C(F)(F)F [DTBPI-PFOS, reference compound]", 18.9),
]
